# system.under.test: human TACE (Homo sapiens (Human))
# conditions.used: read-out: TACE potency IC50
pIC50: −log10 of the molar value.
observable: pIC50

Example molecules with recorded pIC50:
Cc1c(F)cccc1N1CCN(C(=O)CCC2(C)NC(=O)NC2=O)CC1 (centres unmarked)
< 4.70
CCC1(CCC(=O)N2CCN(c3cccc(Cl)c3)CC2)NC(=O)NC1=O (centres unmarked)
< 5.40
C[C@H]1CN(C(=O)CC[C@@]2(C3CC3)NC(=O)NC2=O)CCN1c1ccc(Cl)c(Cl)c1 [compound 207]
< 5.40
C[C@H]1CN(C(=O)CC[C@@]2(C3CC3)NC(=O)NC2=O)CCN1c1ccc(Cl)c(Cl)c1 [compound 416]
< 5.40
O=C1NC(=O)C(CCC(=O)N2CCN(c3ccc(F)c(Cl)c3)CC2)(C2CC2)N1 (centres unmarked)
< 4.70

pIC50 for C[C@H]1CN(C(=O)CCC2(c3cccnc3)NC(=O)NC2=O)CCN1c1ccccc1 (some centres unmarked) is < 4.70

pIC50 for Cc1cc(Cl)ccc1N1CCN(C(=O)CCC2(c3ccccc3)NC(=O)NC2=O)CC1 (centres unmarked) is 5.93

pIC50 for CC(CC1(CN2CCOCC2)NC(=O)NC1=O)C(=O)N1CCN(c2cc(Cl)cc(Cl)c2)[C@@H](C)C1 (some centres unmarked) is < 4.71

###

# system.under.test: human TACE (Homo sapiens (Human), UniProt P78536)
# Sequence (P78536 whole entry, looked up, change not shown): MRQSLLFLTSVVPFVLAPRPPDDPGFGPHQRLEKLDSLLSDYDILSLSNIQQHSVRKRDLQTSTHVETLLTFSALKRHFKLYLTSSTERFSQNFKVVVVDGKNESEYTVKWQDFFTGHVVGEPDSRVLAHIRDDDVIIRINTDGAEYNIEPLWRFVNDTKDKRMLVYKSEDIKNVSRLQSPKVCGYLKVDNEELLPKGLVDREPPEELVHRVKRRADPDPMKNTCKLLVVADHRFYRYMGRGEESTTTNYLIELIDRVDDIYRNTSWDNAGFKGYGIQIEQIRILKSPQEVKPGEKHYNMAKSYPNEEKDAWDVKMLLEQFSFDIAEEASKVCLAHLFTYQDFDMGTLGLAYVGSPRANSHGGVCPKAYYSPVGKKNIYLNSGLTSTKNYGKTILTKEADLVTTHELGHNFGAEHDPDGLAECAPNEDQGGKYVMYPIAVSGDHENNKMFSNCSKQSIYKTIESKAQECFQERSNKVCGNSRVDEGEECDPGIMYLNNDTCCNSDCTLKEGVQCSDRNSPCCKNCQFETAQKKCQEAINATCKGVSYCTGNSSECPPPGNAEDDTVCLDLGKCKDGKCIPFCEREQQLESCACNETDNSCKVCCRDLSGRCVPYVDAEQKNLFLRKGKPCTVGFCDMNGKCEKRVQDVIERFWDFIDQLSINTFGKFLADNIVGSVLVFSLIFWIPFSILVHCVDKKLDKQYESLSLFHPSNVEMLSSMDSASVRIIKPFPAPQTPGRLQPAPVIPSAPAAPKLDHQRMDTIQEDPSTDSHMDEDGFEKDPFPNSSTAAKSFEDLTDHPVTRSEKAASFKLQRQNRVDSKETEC
# conditions.used: read-out: TACE potency IC50
pIC50: −log10 of the molar value.
observable: pIC50

O=C1NC(=O)C(CCC(=O)N2CCN(c3cc(Cl)cc(Cl)c3)CC2)(CNCc2ccccc2)N1 (stereo not shown) [Cpd 181]
5.54
C[C@H]1CN(C(=O)CCC2(c3ccccn3)NC(=O)NC2=O)CCN1c1cc(F)cc(Cl)c1 (stereo partly shown) [compound 346]
< 5.40
CC(CC1(C)NC(=O)NC1=O)C(=O)N1CCN(c2cc(F)cc(Cl)c2)[C@@H](C)C1 (stereo partly shown) [compound 418]
< 5.40

Let us move to another entry and its pIC50.
pIC50 for O=C1NC(=O)C(CCC(=O)N2CCN(c3ccc(F)c(F)c3)CC2)(c2cccnc2)N1 (stereo not shown) [compound 90] is < 5.40

###

Measured pIC50 by item
# system.under.test: human MMP13 (Homo sapiens (Human), UniProt P45452)
# conditions.used: read-out: hMMP-13 potency IC50
pIC50: −log10 of the molar value.

COCCNC(=O)CC1(CCC(=O)N2CCN(c3cc(Cl)cc(Cl)c3)CC2)NC(=O)NC1=O (centres unmarked) [compound 187]
5.58
CC(C)(C)C1(CCC(=O)N2CCN(c3cccc(Cl)c3)CC2)NC(=O)NC1=O (centres unmarked) [compound 107]
< 4.70
C[C@H]1CN(C(=O)CCC2(C)NC(=O)NC2=O)CCN1c1cccc(F)c1 (some centres unmarked) [compound 157]
< 4.70

Let us move to another entry and its pIC50.
pIC50 for O=C1NC(=O)C(CCC(=O)N2CCN(c3cc(Cl)cc(Cl)c3)CC2)(C2CC2)N1 (centres unmarked) [compound 55] is < 4.70

###

# system.under.test: human ADAMTS-5 (Homo sapiens (Human), UniProt Q9UNA0)
# Sequence (Q9UNA0 262-930): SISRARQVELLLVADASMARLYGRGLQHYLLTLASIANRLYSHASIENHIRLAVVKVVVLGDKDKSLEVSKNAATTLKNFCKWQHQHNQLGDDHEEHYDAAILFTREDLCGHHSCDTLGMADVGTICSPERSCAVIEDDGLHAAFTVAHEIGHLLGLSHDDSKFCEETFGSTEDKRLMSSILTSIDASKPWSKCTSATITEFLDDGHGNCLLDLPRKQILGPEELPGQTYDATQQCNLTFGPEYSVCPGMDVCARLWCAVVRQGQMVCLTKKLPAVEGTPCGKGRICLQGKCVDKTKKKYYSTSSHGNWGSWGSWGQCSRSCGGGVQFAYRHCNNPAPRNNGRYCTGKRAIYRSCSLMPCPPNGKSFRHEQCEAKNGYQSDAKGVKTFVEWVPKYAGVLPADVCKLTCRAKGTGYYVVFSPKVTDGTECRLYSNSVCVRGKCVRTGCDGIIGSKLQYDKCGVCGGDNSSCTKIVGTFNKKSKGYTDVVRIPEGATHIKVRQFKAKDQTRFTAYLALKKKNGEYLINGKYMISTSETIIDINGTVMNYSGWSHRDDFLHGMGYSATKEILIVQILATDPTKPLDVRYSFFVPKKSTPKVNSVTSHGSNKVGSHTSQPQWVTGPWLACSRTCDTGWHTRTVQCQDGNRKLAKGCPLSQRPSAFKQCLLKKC
# conditions.used: read-out: hADAMTS-5 potency IC50
Measured IC50 by item
Just the number please, in nM, no unit attached.

CNc1cc(N2CCN(C(=O)CC[C@@]3(C)NC(=O)NC3=O)C[C@@H]2C)ccc1Cl
567
Cc1c(Cl)cc(Cl)cc1N1CCN(C(=O)CCC2(C3CC3)NC(=O)NC2=O)C[C@@H]1C (stereo partly drawn)
78
CSCCC1(CC(C)C(=O)N2CCN(c3cc(Cl)cc(Cl)c3)CC2)NC(=O)NC1=O (stereo not drawn)
26
Cc1cccc(C2(CCC(=O)N3CCN(c4ccc(Cl)c(F)c4)[C@@H](C)C3)NC(=O)NC2=O)n1 (stereo partly drawn)
35

The observed IC50 for C[C@@H](C[C@@]1(C)NC(=O)NC1=O)C(=O)N1CCN(c2ccc(F)c(Cl)c2)[C@@H](C)C1 when tested with human ADAMTS-5 (Homo sapiens (Human), UniProt Q9UNA0) stands at 18

The observed IC50 for Cc1cc(N2CCN(C(=O)CC[C@@]3(C)NC(=O)NC3=O)C[C@@H]2C)cc(C)c1Cl [compound 470] when tested with human ADAMTS-5 (Homo sapiens (Human), UniProt Q9UNA0) stands at 383
